Can you tell me ELISA signal for the items I'm about to list?
# System: T1, human CD137-Fc (human, biotin-labeled)
# T1 construct: if 90 already holds the Fc, drop the second piece; also called biotin-labeled human CD137 fused to human IgG1 Fc fragment; biotin-human CD137-Fc; not shown: human IgG1 Fc fragment
# Method Summary: bead ELISA on biotin-human CD137-Fc with 62.5 pmol free human Fc (control competitor)
Answers are plain numbers.

DADU01_3#002 (antibody, V domains shown, Human IgG1; light chain GLS3000 (kappa); also called dBBDu124) VH: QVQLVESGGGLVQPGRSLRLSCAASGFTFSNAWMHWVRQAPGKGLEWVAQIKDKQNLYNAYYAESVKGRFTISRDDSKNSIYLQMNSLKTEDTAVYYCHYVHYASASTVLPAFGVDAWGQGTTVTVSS VL: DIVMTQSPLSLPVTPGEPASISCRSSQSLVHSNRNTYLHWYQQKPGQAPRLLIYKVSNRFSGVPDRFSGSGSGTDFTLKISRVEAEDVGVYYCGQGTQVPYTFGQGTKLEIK ... 155000
anti-human CD137 antibody described in WO2005/035584A1 (abbreviated as B) (antibody, V domains shown, Control antibody; also called control anti-CD137 antibody) VH: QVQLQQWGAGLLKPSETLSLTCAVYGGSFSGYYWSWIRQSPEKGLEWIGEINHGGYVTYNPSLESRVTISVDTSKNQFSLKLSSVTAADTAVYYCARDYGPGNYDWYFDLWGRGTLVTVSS VL: EIVLTQSPATLSLSPGERATLSCRASQSVSSYLAWYQQKPGQAPRLLIYDASNRATGIPARFSGSGSGTDFTLTISSLEPEDFAVYYCQQRSNWPPALTFGGGTKVEIK ... 184000

From here, focus on the item given below.
**Query** I'd like to know its ELISA signal. The binder in question is DADU01_3#001 (antibody, V domains shown, Human IgG1; light chain GLS3000 (kappa); also called dBBDu126; dBBDu_126) VH: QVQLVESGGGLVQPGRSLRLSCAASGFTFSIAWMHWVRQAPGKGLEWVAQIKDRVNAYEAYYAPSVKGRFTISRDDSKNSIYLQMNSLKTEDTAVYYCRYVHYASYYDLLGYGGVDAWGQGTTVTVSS VL: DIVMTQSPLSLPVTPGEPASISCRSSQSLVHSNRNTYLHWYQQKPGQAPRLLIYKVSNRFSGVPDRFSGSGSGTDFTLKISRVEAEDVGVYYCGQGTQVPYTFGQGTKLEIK
**Result** 81000

Origin of the recorded values: patent US20210388087A1
